Readings of log10(IC50) for the listed compounds
# System: MOLM-13 cells
# METHOD DESCRIPTION: MOLM-13 Cell Proliferation Assay (indicator of DHODH inhibition)
# Assay type: cell-based
# RUN CONDITIONS: Homo sapiens, 72 Hours of culture, CellTiter-Glo, no uridine
Scale: log10; quantity: IC50; unit before log: nM

Example cases with answers are listed next.
COMPOUND: Cc1nc(C)nc(N2CCc3c([nH]c4ccc(Cl)cc34)C2c2cnc(N3C4CCC3COC4)nc2)n1 (stereo not shown)
REPORTED VALUE: 1.54
--
COMPOUND: CN1CCN(c2ncc(C3c4[nH]c5ccc(Cl)cc5c4CCN3c3nc(C(F)(F)F)cc(C(F)(F)F)n3)cn2)CC1 (stereo not shown)
REPORTED VALUE: -0.15
--
COMPOUND: Cc1ccc([C@H]2c3[nH]c4ccc(Cl)cc4c3CCN2c2nc(F)nc(N3CCN(C)CC3)n2)c(F)c1F
REPORTED VALUE: 0.88
--
COMPOUND: Cc1ccc(C2c3[nH]c4ccc(F)cc4c3CCN2c2nc(C(F)(F)F)cc(C(F)(F)F)n2)c(F)c1F (stereo not shown)
REPORTED VALUE: 0.45
--
COMPOUND: Cc1cc(C)nc(N2CCc3c([nH]c4cc(F)c(Cl)cc34)C2c2ccc(C)c(F)c2F)n1 (stereo not shown)
REPORTED VALUE: 0.32

QUERY: Identify the measured log10(IC50) of Cc1ccnc(N2CCc3c([nH]c4cc(F)c(Cl)cc34)C2c2ccc(N(C)C)nc2)n1 (stereo not shown) for MOLM-13 cells.
RESULT: 1.33

QUERY: Query FC(F)(F)c1ncnc(N2CCc3c([nH]c4ccc(Cl)cc34)[C@@H]2c2ccc(N3CCOCC3)nc2)n1 next
RESULT: 0.11
